Provide the reported BW Loss (%) of each item.
# System: M109 murine lung carinoma
# measurement-description: Activity in the M109 Lung Carcinoma Model
# Assay type: in vivo, Balb/c mice
# study-conditions: 60QD mpk ip; day 3-7, 10-14, 17-21
Expressed in %, but write only the number.

Recorded BW Loss (%) (compound `NC(=S)N/N=C/c1ncccc1NC(=O)OCc1c(OP(=O)(O)O)ccc(Cl)c1Cl` ): 7.0

Recorded BW Loss (%) (compound `NC(=S)N/N=C/c1ncccc1NC(=O)OCc1cc(Cl)cc(Cl)c1OP(=O)(O)O` ): 9.0

Recorded BW Loss (%) (compound `NC(=S)N/N=C/c1ncccc1NC(=O)OCc1cc([N+](=O)[O-])ccc1OP(=O)(O)O` ): 9.7

Recorded BW Loss (%) (compound `NC(=S)N/N=C/c1ncccc1NC(=O)OCc1cc(Cl)c(Cl)cc1OP(=O)(O)O` ): 10.0
